biological target: Human Neutrophil Elastase (HNE) (Homo sapiens); construct: Human Neutrophil Elastase (HNE) purified from serum; printed as 'purified from serum'; experiment: Human Neutrophil Elastase Quenched-FRET Assay; settings: HNE purified from serum; substrate MeOSuc-AAPV-AMC; 15 min pre-incubation, 30 min incubation at room temperature; read-out: Inhibition of Human Neutrophil Elastase IC50
Sequence (P08246 30-247 limits assumed): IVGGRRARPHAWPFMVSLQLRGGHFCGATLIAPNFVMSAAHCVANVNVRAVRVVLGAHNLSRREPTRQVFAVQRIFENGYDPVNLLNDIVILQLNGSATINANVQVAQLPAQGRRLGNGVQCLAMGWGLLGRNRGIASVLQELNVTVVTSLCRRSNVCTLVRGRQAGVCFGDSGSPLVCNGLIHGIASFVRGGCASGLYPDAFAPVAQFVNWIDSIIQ
Field 'label' (enum: 1 / 0). Set to 1 when IC50 is strictly under 50 nM; else 0.

1. Cc1c(OCCO)cc(C(=O)NCc2ccc(S(C)(=O)=O)cc2)c(=O)n1-c1cccc(C(F)(F)F)c1    1
2. Cc1c(CCc2cccnc2)cc(C(=O)NCc2ccc(S(C)(=O)=O)cc2)c(=O)n1-c1cccc(C(F)(F)F)c1    0
3. CCCN(C)C(=O)c1cc(C(=O)NCc2ccc(S(C)(=O)=O)cc2)c(=O)n(-c2cccc(C(F)(F)F)c2)c1C    1
4. Cc1c(C(=O)N2CCC[C@@H]2CO)cc(C(=O)NCc2ccc(S(C)(=O)=O)cc2)c(=O)n1-c1cccc(C(F)(F)F)c1    0

All values here come from patent US20070043036A1.
